biological target: BTK (Homo sapiens (Human)); assay: Btk occupancy in cellular assays (PCI-33380 labeling, Jeko-1 cells); assay type: cell-based; conditions: 1.5 h pre-incubation with compound, PCI-33380 5 μM 1 h
Sequence (Q06187 whole entry): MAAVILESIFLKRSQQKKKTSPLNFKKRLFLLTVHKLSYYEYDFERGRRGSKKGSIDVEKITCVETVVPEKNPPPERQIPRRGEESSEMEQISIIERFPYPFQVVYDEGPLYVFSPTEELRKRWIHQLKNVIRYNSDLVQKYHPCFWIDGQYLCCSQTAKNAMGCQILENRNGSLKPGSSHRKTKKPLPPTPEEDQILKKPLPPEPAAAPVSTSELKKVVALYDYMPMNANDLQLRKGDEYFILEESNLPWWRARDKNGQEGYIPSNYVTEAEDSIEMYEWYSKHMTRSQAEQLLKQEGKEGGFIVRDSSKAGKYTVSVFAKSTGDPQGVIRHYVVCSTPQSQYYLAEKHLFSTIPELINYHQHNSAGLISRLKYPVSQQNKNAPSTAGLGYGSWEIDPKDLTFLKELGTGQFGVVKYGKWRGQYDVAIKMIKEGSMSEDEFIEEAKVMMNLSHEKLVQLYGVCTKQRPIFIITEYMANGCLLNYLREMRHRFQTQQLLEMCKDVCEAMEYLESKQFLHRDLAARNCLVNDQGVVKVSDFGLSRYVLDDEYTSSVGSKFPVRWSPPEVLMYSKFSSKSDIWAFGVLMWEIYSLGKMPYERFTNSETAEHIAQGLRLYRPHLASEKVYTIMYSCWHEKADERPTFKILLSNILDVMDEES
VALUE_TYPE: concentration sufficient to fully occupy the active site of Btk (nM)

Example compounds with recorded concentration sufficient to fully occupy the active site of Btk:
COMPOUND | RECORDED_VALUE
C=CC(=O)N1CCC[C@@H](n2nc(-c3ccc(Oc4cccc(OC)c4Cl)cc3)c3cnccc32)C1 | 100
C=CC(=O)N1CC[C@@H](n2nc(-c3ccc(Oc4cccc(F)c4Cl)cc3)c3cnccc32)C1 | 100
C=CC(=O)N1CC[C@@H](n2nc(-c3ccc(Oc4cccc(OC)c4F)cc3)c3cncc(OCC)c32)C1 | 50
C=CC(=O)N1CC[C@@H](n2nc(-c3ccc(Oc4cccc(OC)c4F)cc3)c3cncc(OC)c32)C1 | 50
C=CC(=O)N1CCC[C@@H](n2nc(-c3ccc(Oc4cccc(OC)c4F)cc3)c3c(C)nccc32)C1 | 50

A: C=CC(=O)N1CCC[C@@H](n2nc(-c3ccc(Oc4cccc(OC)c4F)cc3)c3cncc(OC4CCOC4)c32)C1 (stereo partly drawn)
B: C=CC(=O)N1CCC[C@@H](n2nc(-c3ccc(Oc4cccc(OC)c4F)cc3)c3cncc(OCCC)c32)C1
Ask | Which record would sort first by descending concentration sufficient to fully occupy the active site of Btk, A or B ? Field: selected label. Fill in the label of the entry you choose.
Reply | A
